B1: TPR t1 (parent)
chain: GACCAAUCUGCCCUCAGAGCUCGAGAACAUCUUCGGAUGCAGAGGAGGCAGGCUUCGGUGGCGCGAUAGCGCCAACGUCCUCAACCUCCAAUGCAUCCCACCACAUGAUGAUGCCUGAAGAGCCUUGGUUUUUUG

Variants of: B1
Assay: polymerase ribozyme fitness, log enrichment relative to wild type (log ratio); higher = more active; in vitro selection for triplet polymerase activity
experimental.endpoint: polymerase ribozyme fitness (log ratio)

[[record]]
mutant_code = "A46C C101G G120A"
value_measured = -2

[[record]]
mutant_code = "A2C U87G"
value_measured = -1.65

[[record]]
mutant_code = "U7G C8A"
value_measured = 0.287

[[record]]
mutant_code = "G51U G120A"
value_measured = -2.64

[[record]]
mutant_code = "G39U C40G"
value_measured = -3.47

[[record]]
mutant_code = "C98U A105G C114G C115A G135U"
value_measured = -7.98

[[record]]
mutant_code = "U9A G71U C94A C123G"
value_measured = 0.355

[[record]]
mutant_code = "A95C U116G"
value_measured = -2.17

[[record]]
mutant_code = "G45C U132C"
value_measured = -1.51

[[record]]
mutant_code = "C11U G45C"
value_measured = -1.59

[[record]]
mutant_code = "U7C C8G C53G C101A"
value_measured = -0.517

[[record]]
mutant_code = "G60A A91C"
value_measured = -1.35

[[record]]
mutant_code = "G44U G63U"
value_measured = -2.03

[[record]]
mutant_code = "G71U C124G U126C"
value_measured = 2.04

[[record]]
mutant_code = "C40U A43U G57U G63C"
value_measured = -3.07

[[record]]
mutant_code = "G71C A84G U133A"
value_measured = -3.86

[[record]]
mutant_code = "A6C G39U"
value_measured = -1.84

[[record]]
mutant_code = "C20G C56G A84U"
value_measured = -4.43

[[record]]
mutant_code = "A29U C72U A84C U87C U112C"
value_measured = -1.31

[[record]]
mutant_code = "G69U G93U G120A U125G U129G"
value_measured = -0.716

[[record]]
mutant_code = "U67C G120U"
value_measured = -4.12

[[record]]
mutant_code = "U14G G45C C94A C123U"
value_measured = -3.17

[[record]]
mutant_code = "A2C C72A C115G"
value_measured = -3.29

[[record]]
mutant_code = "A46G G63C G110U U116A U130C"
value_measured = -4.2

[[record]]
mutant_code = "G128A U130G"
value_measured = -1.43

[[record]]
mutant_code = "G69C C72A C94G"
value_measured = -5.12

[[record]]
mutant_code = "G57U U87G G113A C123U"
value_measured = -1.98

[[record]]
mutant_code = "G35U C64G C97G G117C"
value_measured = -7.13

[[record]]
mutant_code = "U7C C13G C72A"
value_measured = -0.177

[[record]]
mutant_code = "C70A C104A U109A G128C"
value_measured = -7.62

[[record]]
mutant_code = "C49U C82A U87C U96A"
value_measured = -1.66

[[record]]
mutant_code = "C11G G51U C62A G71A C89U C97U"
value_measured = -6.66

[[record]]
mutant_code = "A43G C114G"
value_measured = -3.66

[[record]]
mutant_code = "A43C C62G"
value_measured = -5.4

[[record]]
mutant_code = "C49U C62G G71A"
value_measured = -1.5

[[record]]
mutant_code = "C28G U38A C86U"
value_measured = -5.02

[[record]]
mutant_code = "C15U U129C"
value_measured = -1.86

[[record]]
mutant_code = "C13G C53G G63C"
value_measured = -2.03

[[record]]
mutant_code = "A6C A108G U129G"
value_measured = -3.64

[[record]]
mutant_code = "A6G G10A C20A U112G"
value_measured = -1.35

[[record]]
mutant_code = "A29G C53A A91G C98A A111G"
value_measured = -7

[[record]]
mutant_code = "A26G G69A A91U U133G"
value_measured = -6.73

[[record]]
mutant_code = "A50U C70G A84C C115A"
value_measured = -4.54

[[record]]
mutant_code = "C11U G63A C72A"
value_measured = -7.14

[[record]]
mutant_code = "G47C C49U C62U"
value_measured = -2.46

[[record]]
mutant_code = "C13U G51A U55A C79G C89A"
value_measured = -5.95

[[record]]
mutant_code = "G52U C70U U78A C101G G128A"
value_measured = -3.89

[[record]]
mutant_code = "A2G A5G U7G U21G A43C G69U C88A C101U U129A"
value_measured = -3.72

[[record]]
mutant_code = "U9A G128C"
value_measured = -2.11

[[record]]
mutant_code = "C56G C101A"
value_measured = -1.08

[[record]]
mutant_code = "A95G U112A A119U"
value_measured = 0.842

[[record]]
mutant_code = "G10A A95C"
value_measured = -0.471

[[record]]
mutant_code = "C13A A27U A43U G57C"
value_measured = -4.33

[[record]]
mutant_code = "C11A G42U U106A"
value_measured = -3.49

[[record]]
mutant_code = "G60U C124A"
value_measured = 1.7

[[record]]
mutant_code = "G44A A105G"
value_measured = -4.47

[[record]]
mutant_code = "C12G G36A C94A"
value_measured = -3.18

[[record]]
mutant_code = "U21G C94U"
value_measured = -1.8

[[record]]
mutant_code = "A18U A27G C53A G71C C85G"
value_measured = -8.07

[[record]]
mutant_code = "G39U G60A"
value_measured = 0.0157

[[record]]
mutant_code = "C56G G58A G77A"
value_measured = 0.427

[[record]]
mutant_code = "C3U A29U"
value_measured = -1.77

[[record]]
mutant_code = "G61C A100U G120C G127U"
value_measured = -1.07

[[record]]
mutant_code = "G63U A91C U92G"
value_measured = -4.45

[[record]]
mutant_code = "G63A A121U"
value_measured = 0.59


These data points were gathered from the RNAGym collection of RNA variant scans (doi:10.1073/pnas.2313332121).
